# Study system: rat brain cortical membranes (GABA receptor complex, [35S]-TBPS binding)
# Experiment notes: Steroid inhibition of [35S]-TBPS binding
# Run conditions: 3 nM [35S]-TBPS, in the presence of 5 mM GABA
pIC50: −log10 of the molar value.
Metric name: pIC50

INSERT INTO measurements (molecule, metric_name, recorded_value) VALUES
  ('CO[C@@H]1C[C@H]2[C@@H](CC[C@@H]3C[C@](C)(O)CC[C@@H]32)[C@@H]2CC[C@H](C(=O)Cn3nnnc3C)[C@@]12C [Compound 59]', 'pIC50', '6.30 to 7.00'),
  ('COC[C@H]1C[C@H]2C[C@](C)(O)CC[C@]2(C)[C@H]2CC[C@]3(C)[C@@H](C(C)=O)CC[C@H]3[C@H]12 [Compound 11]', 'pIC50', '≤ 6.30');

Entry under review: C[C@@]1(O)CC[C@@]2(C)[C@@H](CC[C@@H]3[C@@H]2C[C@@H](O)[C@]2(C)[C@@H](C(=O)Cn4ncc5ccncc54)CC[C@@H]32)C1 [Compound 50] . Reported pIC50?
≤ 6.30

====

# Study system: rat brain cortical membranes (GABA receptor complex, [35S]-TBPS binding)
# Experiment notes: Steroid inhibition of [35S]-TBPS binding
# Run conditions: 3 nM [35S]-TBPS, in the presence of 5 mM GABA
A collection of compounds and their measured IC50

INSERT INTO results (line_notation, metric_name, recorded_value) VALUES
  ('COc1ccc2nnn(CC(=O)[C@H]3[C@H](C)C[C@H]4[C@@H]5CC[C@H]6C[C@](C)(O)CC[C@]6(C)[C@H]5CC[C@@]43C)c2c1', 'IC50', '10 to 50 nM'),
  ('C[C@@H]1C[C@H]2C[C@](C)(O)CC[C@]2(C)[C@H]2CC[C@]3(C)[C@@H](C#N)CC[C@H]3[C@H]12', 'IC50', '≥ 500 nM');

The record that follows has no IC50 shown yet.
Entry under review: CO[C@H]1C[C@H]2C[C@](C)(O)CC[C@]2(C)[C@H]2CC[C@]3(C)[C@@H](C(=O)Cn4cc(C#N)cn4)CC[C@H]3[C@H]12 . Reported IC50?
≥ 500 nM

====

# Study system: rat brain cortical membranes (GABA receptor complex, [35S]-TBPS binding)
# Experiment notes: Steroid inhibition of [35S]-TBPS binding
# Run conditions: 3 nM [35S]-TBPS, in the presence of 5 mM GABA
A collection of molecules and their measured IC50

Reference set, count: 4
INSERT INTO assay_data (molecule, recorded_value) VALUES
  ('CO[C@H]1C[C@H]2[C@@H](CC[C@H]3C[C@](C)(O)CC[C@@]32C)[C@@H]2CC[C@H](C(=O)Cn3cc4ccncc4n3)[C@@]12C [Compound 54]', '≥ 500 nM'),
  ('Cc1nnn(CC(=O)[C@H]2[C@H](C)C[C@H]3[C@@H]4CC[C@H]5C[C@](C)(O)CC[C@]5(C)[C@H]4CC[C@@]32C)n1 [Compound 89]', '10 to 50 nM'),
  ('CC(C)[C@@H]1C[C@H]2[C@@H]3CC[C@H]4C[C@](C)(O)CC[C@]4(C)[C@H]3CC[C@]2(C)[C@H]1C(=O)Cn1cc2ccncc2n1 [Compound 76]', '≥ 500 nM'),
  ('CO[C@H]1CC[C@H]2[C@@H]3CC[C@H]4C[C@](C)(O)CC[C@]4(C)[C@H]3C[C@@H](OC)[C@]12C [Compound 42]', '100 to 500 nM');

The record that follows has no IC50 shown yet.
Entry under review: C[C@@H]1C[C@H]2C[C@](C)(O)CC[C@]2(C)[C@H]2CC[C@]3(C)[C@@H](C(=O)Cn4cc5ccncc5n4)CC[C@H]3[C@H]12 [Compound 8] . Reported IC50?
≥ 500 nM
